# system-under-test: HLA-A*1101 (human)
# test: inhibition of radiolabeled probe peptide binding to purified HLA, gel filtration
# conditions-used: remark: other sources report otherwise
property: binding affinity ratio to standard peptide

Examples with answers:
INSERT INTO measurements (binder, reported_result) VALUES
  ('GFLHSGTAK [p53 peptide … (position 112)]', 0.0001),
  ('TSRHKKLMFK [p53 peptide … (position 377)]', 0.0052),
  ('RTEEENLRK [p53 peptide … (position 283)]', 0.091);

INPUT: Indicate the recorded binding affinity ratio to standard peptide value for this binder: RVRAMAIYK [p53 peptide … (position 156)]
OUTPUT: 0.73

// provenance: patent US20050196403A1
